- Measured target: human SGLT2 (Homo sapiens, UniProt P31639, I433V)
- Sequence (P31639 1-672 I433V): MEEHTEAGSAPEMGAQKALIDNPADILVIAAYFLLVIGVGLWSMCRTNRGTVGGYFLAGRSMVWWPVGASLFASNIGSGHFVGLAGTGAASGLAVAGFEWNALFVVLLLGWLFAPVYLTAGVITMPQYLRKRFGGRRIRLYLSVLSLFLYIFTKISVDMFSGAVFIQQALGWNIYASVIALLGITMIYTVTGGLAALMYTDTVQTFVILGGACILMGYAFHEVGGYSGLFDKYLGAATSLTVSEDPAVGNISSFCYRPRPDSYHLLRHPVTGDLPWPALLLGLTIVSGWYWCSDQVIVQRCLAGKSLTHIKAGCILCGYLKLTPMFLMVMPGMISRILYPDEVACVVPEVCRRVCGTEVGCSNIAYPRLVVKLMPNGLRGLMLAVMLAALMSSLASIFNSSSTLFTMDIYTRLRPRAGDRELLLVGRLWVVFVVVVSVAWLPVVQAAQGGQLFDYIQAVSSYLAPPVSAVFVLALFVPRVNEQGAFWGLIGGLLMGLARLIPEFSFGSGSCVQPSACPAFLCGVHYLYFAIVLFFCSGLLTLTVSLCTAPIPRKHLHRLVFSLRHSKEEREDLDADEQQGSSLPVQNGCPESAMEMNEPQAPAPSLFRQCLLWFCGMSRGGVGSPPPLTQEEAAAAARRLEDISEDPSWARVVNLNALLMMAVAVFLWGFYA
- Test name: Assay for inhibitory effect on human SGLT2 activity (methyl-α-D-glucopyranoside uptake in COS-7 cells transiently expressing human SGLT2)
- Run conditions: inhibition of methyl-α-D-glucopyranoside uptake, COS-7 cells expressing human SGLT2, 37° C., 2 hours
Parameter measured: pIC50
Give bare numbers, as −log10 of the molar value.

Example cases with answers are listed next.
>  <Compound>
Cc1ccc(Cc2c(O[C@@H]3O[C@H](CO)[C@@H](O)[C@H](O)[C@H]3O)n[nH]c2C)cc1 [Reference Example 57]

>  <Parameter measured>
pIC50

>  <Measured value>
6.55

$$$$
>  <Compound>
COc1ccc(Cc2c(O[C@@H]3O[C@H](CO)[C@@H](O)[C@H](O)[C@H]3O)n[nH]c2C(F)(F)F)cc1 [Reference Example 50]

>  <Parameter measured>
pIC50

>  <Measured value>
6.38

$$$$
>  <Compound>
CCCOc1ccc(Cc2c(O[C@@H]3O[C@H](CO)[C@@H](O)[C@H](O)[C@H]3O)n[nH]c2C)cc1 [Reference Example 40]

>  <Parameter measured>
pIC50

>  <Measured value>
6.15

$$$$

Dear reader, for each entry below, please note its pIC50.
1. COc1ccc(Cc2c(O[C@@H]3O[C@H](CO)[C@@H](O)[C@H](O)[C@H]3O)n[nH]c2C)cc1 [Reference Example 51]
2. Cc1[nH]nc(O[C@@H]2O[C@H](CO)[C@@H](O)[C@H](O)[C@H]2O)c1Cc1ccc(OC(C)C)cc1 [Reference Example 37]
3. Cc1c(Cc2ccc(OC(C)C)cc2)c(O[C@@H]2O[C@H](CO)[C@@H](O)[C@H](O)[C@H]2O)nn1C(C)C [Reference Example 72]
4. CCOc1ccc(Cc2c(O[C@@H]3O[C@H](CO)[C@@H](O)[C@H](O)[C@H]3O)n[nH]c2C)cc1 [Reference Example 41]
5. CSc1ccc(Cc2c(O[C@@H]3O[C@H](CO)[C@@H](O)[C@H](O)[C@H]3O)n[nH]c2C)cc1 [Reference Example 45]

Completion:
1. 6.42
2. 6.74
3. 6.43
4. 6.73
5. 7.08
